Recorded pIC50 values (UniProtKB P07333) are given below.
Sequence (P07333 whole entry): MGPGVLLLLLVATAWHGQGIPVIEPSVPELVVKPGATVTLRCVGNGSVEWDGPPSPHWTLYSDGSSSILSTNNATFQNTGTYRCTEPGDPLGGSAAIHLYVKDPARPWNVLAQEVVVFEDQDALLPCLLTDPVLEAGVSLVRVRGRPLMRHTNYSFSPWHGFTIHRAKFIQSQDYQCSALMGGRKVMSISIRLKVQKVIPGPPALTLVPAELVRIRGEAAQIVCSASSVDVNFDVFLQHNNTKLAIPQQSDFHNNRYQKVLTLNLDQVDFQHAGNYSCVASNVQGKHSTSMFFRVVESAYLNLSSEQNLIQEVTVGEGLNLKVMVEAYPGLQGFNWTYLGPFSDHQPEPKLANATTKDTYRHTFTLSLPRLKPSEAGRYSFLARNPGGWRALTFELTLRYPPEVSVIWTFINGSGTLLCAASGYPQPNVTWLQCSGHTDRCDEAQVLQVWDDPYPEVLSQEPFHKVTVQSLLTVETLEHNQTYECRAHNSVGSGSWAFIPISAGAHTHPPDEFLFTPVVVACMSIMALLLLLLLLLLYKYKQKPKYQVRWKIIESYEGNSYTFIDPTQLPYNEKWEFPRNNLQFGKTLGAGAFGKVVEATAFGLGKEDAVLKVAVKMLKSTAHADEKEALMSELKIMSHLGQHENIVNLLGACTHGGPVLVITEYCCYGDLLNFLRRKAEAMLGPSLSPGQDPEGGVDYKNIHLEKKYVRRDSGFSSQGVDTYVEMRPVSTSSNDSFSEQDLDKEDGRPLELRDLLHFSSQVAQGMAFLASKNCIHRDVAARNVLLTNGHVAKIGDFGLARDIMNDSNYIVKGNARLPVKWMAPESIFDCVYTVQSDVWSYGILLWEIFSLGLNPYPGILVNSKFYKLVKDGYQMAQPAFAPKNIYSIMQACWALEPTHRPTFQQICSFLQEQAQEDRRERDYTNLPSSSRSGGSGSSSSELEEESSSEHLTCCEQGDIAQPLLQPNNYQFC
In plain terms, pIC50 is the concentration in mol/L turned into minus its base-10 logarithm.

1) CC(C)Nc1c(C(N)=O)nnc2cc(-c3ccc(S(C)(=O)=O)cc3)ccc12	7.92

The record that follows has no pIC50 shown yet.
[ask] API: value(readout=pIC50, system=UniProtKB P07333) for record C[C@@H](Nc1c(C(N)=O)nnc2cc(-c3ccc(S(C)(=O)=O)cc3)ccc12)C1CC1
[reply] 7.77

====

- EXPERIMENTAL_SYSTEM: Dual specificity protein kinase CLK1 (Homo sapiens)
- TEST_DESCRIPTION: Inhibition of CLK1 (unknown origin) at 10 uM relative to control
# inhibition values compiled below
Only the number, expressed in %, is required.

Check out these entries, answers already filled in.
1. C[C@@H](Nc1c(C(N)=O)nnc2cc(-c3ccc(S(C)(=O)=O)cc3)ccc12)C1CC1	5
2. CC(C)Nc1c(C(N)=O)nnc2cc(N3CCOCC3)ccc12	4
3. CC(C)Nc1c(C(N)=O)cnc2cc(-c3ccc(S(C)(=O)=O)cc3)ccc12	2

[ask] Quick one: inhibition for CS(=O)(=O)c1ccc(-c2ccc3c(NC4CCC4)c(C(N)=O)nnc3c2)cc1 ?
[reply] 14

[ask] Field request: inhibition | item: CC(C)Nc1c(C(N)=O)nnc2ccc(-c3cn[nH]c3)cc12
[reply] 101

[ask] Looking for the measured inhibition of CC(C)Nc1c(C(N)=O)nnc2cc(-c3ccncc3)ccc12 , can you help?
[reply] 60

[ask] Item under review: CC(C)Nc1c(C(N)=O)nnc2ccc(-c3ccncc3)cc12 . Reported inhibition?
[reply] 103

====

- EXPERIMENTAL_SYSTEM: Receptor-type tyrosine-protein kinase FLT3 (Homo sapiens) (UniProt P36888)
- Sequence (P36888 whole entry): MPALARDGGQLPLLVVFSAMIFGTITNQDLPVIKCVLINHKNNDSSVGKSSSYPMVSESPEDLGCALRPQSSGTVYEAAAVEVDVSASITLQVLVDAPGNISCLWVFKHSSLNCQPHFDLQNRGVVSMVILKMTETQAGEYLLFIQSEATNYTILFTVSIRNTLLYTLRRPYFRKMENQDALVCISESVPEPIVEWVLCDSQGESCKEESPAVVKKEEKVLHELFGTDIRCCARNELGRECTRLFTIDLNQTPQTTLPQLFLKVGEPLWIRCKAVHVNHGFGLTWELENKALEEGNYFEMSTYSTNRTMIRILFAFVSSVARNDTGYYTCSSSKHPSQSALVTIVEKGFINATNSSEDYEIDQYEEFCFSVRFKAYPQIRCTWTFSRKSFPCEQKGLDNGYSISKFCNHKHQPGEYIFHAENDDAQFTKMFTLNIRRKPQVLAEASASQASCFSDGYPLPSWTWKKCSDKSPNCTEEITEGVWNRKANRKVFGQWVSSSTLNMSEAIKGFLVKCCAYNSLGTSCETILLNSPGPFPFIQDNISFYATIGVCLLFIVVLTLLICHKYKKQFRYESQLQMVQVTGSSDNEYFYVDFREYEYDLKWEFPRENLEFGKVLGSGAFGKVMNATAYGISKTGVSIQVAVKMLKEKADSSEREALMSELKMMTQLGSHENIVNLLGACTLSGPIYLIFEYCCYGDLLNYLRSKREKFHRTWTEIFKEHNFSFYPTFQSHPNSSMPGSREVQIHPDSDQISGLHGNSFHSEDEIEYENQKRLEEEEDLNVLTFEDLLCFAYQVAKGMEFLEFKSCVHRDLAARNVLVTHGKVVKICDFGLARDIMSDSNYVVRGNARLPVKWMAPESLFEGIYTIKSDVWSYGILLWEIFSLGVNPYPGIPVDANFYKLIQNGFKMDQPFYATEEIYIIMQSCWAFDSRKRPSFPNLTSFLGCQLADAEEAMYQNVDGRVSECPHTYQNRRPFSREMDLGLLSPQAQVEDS
- TEST_DESCRIPTION: Inhibition of FLT3 (unknown origin) at 10 uM relative to control
Quick reference: inhibition of the listed items.
The answer is to be given in %; state only the numeric part.

1. CC(C)Nc1c(C(N)=O)nnc2cc(-c3ccncc3)ccc12	96

[ask] # returns recorded inhibition (system: Receptor-type tyrosine-protein kinase FLT3 (Homo sapiens) (UniProt P36888)) for CS(=O)(=O)c1ccc(-c2ccc3c(NC4CCC4)c(C(N)=O)nnc3c2)cc1
[reply] 72

[ask] Request - read-out inhibition | tested on Receptor-type tyrosine-protein kinase FLT3 (Homo sapiens) (UniProt P36888) | compound CC(C)Nc1c(C(N)=O)nnc2ccc(-c3ccncc3)cc12
[reply] 102

[ask] State its inhibition on Receptor-type tyrosine-protein kinase FLT3 (Homo sapiens) (UniProt P36888): CC(C)Nc1c(C(N)=O)cnc2cc(-c3ccc(S(C)(=O)=O)cc3)ccc12
[reply] 75

[ask] Record lookup: for Receptor-type tyrosine-protein kinase FLT3 (Homo sapiens) (UniProt P36888), what inhibition belongs to CC(C)Nc1c(C(N)=O)nnc2cc(N3CCOCC3)ccc12 ?
[reply] 99

[ask] Requested read-out inhibition, target or system Receptor-type tyrosine-protein kinase FLT3 (Homo sapiens) (UniProt P36888), entry C[C@@H](Nc1c(C(N)=O)nnc2cc(-c3ccc(S(C)(=O)=O)cc3)ccc12)C1CC1
[reply] 80

[ask] What measured inhibition is associated with CC(C)Nc1c(C(N)=O)nnc2ccc(-c3cn[nH]c3)cc12 on Receptor-type tyrosine-protein kinase FLT3 (Homo sapiens) (UniProt P36888)?
[reply] 101
